The measurements presented in this section are drawn from patent US10479780B2.

Molecular target: human Yes1 enzyme (Homo sapiens)
Construct: made in house
Sequence (P07947 whole entry): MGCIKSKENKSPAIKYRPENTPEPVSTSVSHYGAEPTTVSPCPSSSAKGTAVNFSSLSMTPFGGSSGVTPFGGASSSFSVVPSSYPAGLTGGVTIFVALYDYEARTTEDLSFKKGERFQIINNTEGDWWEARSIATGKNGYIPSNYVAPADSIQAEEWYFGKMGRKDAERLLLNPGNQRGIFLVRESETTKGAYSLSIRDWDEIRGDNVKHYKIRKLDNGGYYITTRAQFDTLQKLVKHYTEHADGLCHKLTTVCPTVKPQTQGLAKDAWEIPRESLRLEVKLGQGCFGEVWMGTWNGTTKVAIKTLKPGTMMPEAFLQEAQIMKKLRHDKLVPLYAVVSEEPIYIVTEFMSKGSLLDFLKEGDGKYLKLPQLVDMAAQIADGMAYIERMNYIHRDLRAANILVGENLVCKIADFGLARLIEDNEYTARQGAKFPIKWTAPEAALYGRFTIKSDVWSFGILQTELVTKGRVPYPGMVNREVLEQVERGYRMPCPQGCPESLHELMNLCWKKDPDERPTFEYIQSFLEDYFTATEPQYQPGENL
Assay: Yes1 enzyme inhibitory activity (time-resolved fluorometry, biotinylated peptide phosphorylation)
Type: biochemical
Conditions: biotinylated peptide phosphorylation, read-out: YES_IC50
Entries and their measured IC50 follow.
parameter.measured: IC50 (nM)

structure.smiles.string | parameter.measured | value.unit | assay.result
Cc1cc(Oc2c(F)cccc2F)ncc1-n1ncc(C(=O)c2cc3cc(OC(F)F)c(NS(=O)(=O)C4CC4)cc3[nH]2)c1N | IC50 | nM | 4.3
Cc1cc(Oc2c(F)cccc2F)ncc1-n1ncc(C(=O)c2cc3cc(OC(F)F)c(NS(=O)(=O)N4CCOCC4)cc3[nH]2)c1N | IC50 | nM | 2.9
Cc1cc2cc(C(=O)c3cnn(-c4cnc(Oc5c(F)cccc5F)cc4C)c3N)[nH]c2cc1N1C(=O)CNC1=O | IC50 | nM | 1.2
Cc1cc(Oc2ccccc2F)ccc1-n1ncc(C(=O)c2cc3cc(OCCN4CCOCC4)c(N4CCCS4(=O)=O)cc3[nH]2)c1N | IC50 | nM | 0.35
Cc1cc(Oc2ccccc2F)ccc1-n1ncc(C(=O)c2cc3cc(OCC(F)F)c(N4C(=O)C(C)(C)NC4=S)cc3[nH]2)c1N | IC50 | nM | 0.76
Cc1cc2cc(C(=O)c3cnn(-c4ccc(Oc5cccc(F)c5F)cc4C)c3N)[nH]c2cc1N1CCCS1(=O)=O | IC50 | nM | 0.63
